Sourced from ChEMBL document CHEMBL1201862

# Test system: DMS-273
# Method Summary: NCI tumour cell line growth inhibition, 48 h
Calls of active or inactive are those of the source. Cut-off read from the data, not from the text of the source: active = GI50 up to about 1.1 µM and inactive = higher.
Assign a class; possible classes are active, inactive

Study these solved cases before continuing.
Molecule	Measured Target	Assigned Class
CN1CCc2c1nc(-c1ccccc1)c1c2N(C)CC1	DMS-273	inactive
CC(=O)CCCCCCCCCCCC[C@@H]1CC[C@H](C)[C@H](O)N1	DMS-273	inactive
O=c1oc2cc(O)ccc2c2[nH]c3cc(O)ccc3c12	DMS-273	inactive
NC(=O)C(=O)N/N=C1/c2ccccc2CC1C1(O)C(=O)Nc2c(Cl)cc(Cl)cc21 (configuration not stated)	DMS-273	inactive
CCN(CCCl)CCNc1c2ccccc2nc2ccc(OC)cc12	DMS-273	active
CC12CC3CC(C)(C1)CC(N=[N+]=[N-])(C3)C2	DMS-273	inactive

Ask | Any idea what this test logged for CC1CC(=O)CC[C@@H]1OCc1ccccc1 (some centres not stated) ?
Reply | inactive

###

# System: NCI-H23
# Method Summary: NCI tumour cell line growth inhibition, 48 h
Activity calls are given as the source filed them. No stated cut-off is given here; in the data, active = GI50 up to about 1.1 µM and inactive = higher.
Assign a class; possible classes are 1 (yes) (active), 0 (no) (inactive)

Study these solved cases before continuing.
Compound	Assigned Class
CC1(c2cccs2)CC(c2cccs2)=C(C#N)C(=C(C#N)C#N)N1 (stereo unspecified)	0 (no)
COc1ccc(/C=C2\CC3C4CC=C5C[C@@H](N6CCCC6)CC[C@]5(C)C4CC[C@]3(C)[C@H]2O)cc1OC (stereo partly specified)	0 (no)
COc1c(O)c(OC)c2oc(-c3ccc(O)cc3)c(OC)c(=O)c2c1O	0 (no)

Ask | Any idea what this test logged for "CN(C)S(=O)(=O)c1nc(Cl)c2nc[nH]c2n1" ?
Reply | 0 (no)

Ask | Any idea what this test logged for "Nn1c(-c2ccccc2)nn(C(=O)c2ccccc2)c1=O" ?
Reply | 0 (no)

Ask | Any idea what this test logged for "O=C(O)CSc1cc(-c2ccccc2)nc2ccccc12" ?
Reply | 0 (no)

Ask | Any idea what this test logged for "c1ccc(-c2cc(-c3ccccc3)nc(-c3ccncc3)c2)cc1" ?
Reply | 0 (no)

Ask | Any idea what this test logged for CCc1cccc(C(C)CC)c1NC(=O)CC1C(=O)Nc2ccccc2S1(=O)=O (stereo unspecified) ?
Reply | 0 (no)

Ask | Any idea what this test logged for C1=CC(=[N+]2N=C(c3ccccc3)CC2c2ccccc2)C=CC1=C1SC(c2ccccc2)(c2ccccc2)c2ccccc21.[O-][Cl+3]([O-])([O-])[O-] (stereo unspecified) ?
Reply | 0 (no)

Ask | Any idea what this test logged for "O=C1C(Cl)=C(Cl)C(=O)N1c1ccccc1Cl" ?
Reply | 0 (no)

Ask | Any idea what this test logged for "COc1cc(N(CCC#N)CCC#N)ccc1C(=N/NC(=O)c1cc(Br)ccc1O)/N=N/c1ccccc1" ?
Reply | 0 (no)

Ask | Any idea what this test logged for "CCCCN(CCCC)C(=C(C(Cl)=C(Cl)Cl)[N+](=O)[O-])N(CCCC)CCCC" ?
Reply | 0 (no)

Ask | Any idea what this test logged for "O=C(N/C(=C\c1c(O)ccc2ccccc12)c1nc2ccccc2[nH]1)c1ccccc1" ?
Reply | 0 (no)

Ask | Any idea what this test logged for CC(=O)C1C(=O)C(=O)N(c2ccc([N+](=O)[O-])cc2Cl)C1=O (stereo unspecified) ?
Reply | 0 (no)

Ask | Any idea what this test logged for COC(=O)c1c2c(cc3c1CC1(Cc4ccc(C(C)=O)cc4C1)C3)CCC2 (stereo unspecified) ?
Reply | 0 (no)

Ask | Any idea what this test logged for C1=C2C3=[N+](CCCC3)CC2Cc2ccsc21 (stereo unspecified) ?
Reply | 0 (no)

Ask | Any idea what this test logged for "Cc1ccc(S(=O)(=O)NC(=O)Nc2ccc(C(=O)O)c(O)c2)cc1" ?
Reply | 0 (no)

###

# Test system: 786-0
# Method Summary: NCI tumour cell line growth inhibition, 48 h
The source made the active and inactive calls. Cut-off read from the data, not from the text of the source: active = GI50 up to about 1.1 µM and inactive = higher.
Assign a class; possible classes are 1 (active), -1 (inactive)

Compound	Assigned Class
O=C(O)CCN1CCN(CCC(=O)O)CCN(CCC(=O)O)CC1	-1
CC1C=CC(C(N)C(=O)O)O1 (stereo not given)	-1
O=C1C(Br)=CC2(C=C1Br)CCNC1=C2C2=NCCc3c[nH]c(c32)C1=O	1
CN1C(c2ccccc2)CC(=NO)CC1c1ccccc1 (stereo not given)	-1
COc1ccc(/C=C2\CNC/C(=C\c3ccc(OC)cc3)C2=O)cc1	-1
O=C(O)CCC(N/N=N/c1ccc(-c2nc3ccccc3[nH]2)cc1)C(=O)O (stereo not given)	-1

Ask | Any idea what this test logged for "C=C1C(=O)O[C@H]2C/C(C)=C/CC[C@@]3(C)O[C@](C)(CC[C@@H]3I)[C@@H](I)C[C@@H]12" ?
Reply | -1

Ask | Any idea what this test logged for CC1NOC(NS(=O)(=O)c2ccc(/N=N/c3c(O)c(C(=O)O)cc4ccccc34)cc2)C1C (stereo not given) ?
Reply | -1

Ask | Any idea what this test logged for "CCCCNC1=C(C(=O)OCC)/C(=N/NC(=O)c2ccccc2O)CO1" ?
Reply | -1

Ask | Any idea what this test logged for "COc1ccc2c(c1)C/C(=C\c1ccc(O)c(OC)c1)C2=O" ?
Reply | -1

###

# Test system: DU-145
# Method Summary: NCI tumour cell line growth inhibition, 48 h
Activity calls are given as the source filed them. No stated cut-off is given here; in the data, active = GI50 up to about 1.1 µM and inactive = higher.
The entries below are paired with their reported GI50.

The cases that follow already have their GI50 on record.
Molecule	Reported Measurement
O=P1(C(O)/C=C/c2ccccc2)N(Cc2ccccc2)[C@H](c2ccccc2)[C@@H](c2ccccc2)N1Cc1ccccc1 (stereo not given in full)	38.5 µM (inactive)
C(=C/CCCN1O[C@@H](CCCCCCCCc2cccnc2)[C@H]2CCC[C@H]21)/CCCCCCCCCc1cccnc1	32.4 µM (inactive)
COC(=O)C1c2cc3c(cc2C(OC2OC(C)C(OC)C(C)(OC)C2OC)CC1(C)O)C(=O)c1c(O)cc2c(c1C3=O)OC1OC2(C)C(O)C([N+](C)(C)[O-])C1O (stereo not given)	0.275 µM (active)
O=C(c1ccccc1)N1C(=S)N(c2ccc([N+](=O)[O-])cc2)C(=N/c2ccccc2)/C1=N\c1ccccc1	> 100 µM (inactive)
c1ccc(-c2cc(-c3ccccc3)nc(-c3ccncc3)c2)cc1	> 100 µM (inactive)

Ask | State the recorded GI50 for this entry: "CO/N=C(\C)c1cccc(Nc2c3ccccc3nc3occc23)c1"
Reply | 18.9 µM (inactive)

Ask | State the recorded GI50 for this entry: "Cc1ccccc1-n1c(=O)nc2n(-c3ccc(C(C)(C)C)cc3)c3ccccc3cc-2c1=O"
Reply | 21.1 µM (inactive)

Ask | State the recorded GI50 for this entry: "C(=NCCN1CCOCC1)=NC1CCCCC1"
Reply | > 100 µM (inactive)

Ask | State the recorded GI50 for this entry: O=C(O)CCC(NC(=O)c1ccc(CNc2nc3ccccc3nc2C(=O)O)cc1)C(=O)O (stereo not given)
Reply | > 100 µM (inactive)

Ask | State the recorded GI50 for this entry: "O=C1N[C@@H]2c3c(Br)sc(Br)c3C(=O)[C@@H]2N1"
Reply | 5.86 µM (inactive)

###

# Tested on: BT-549
# Method Summary: NCI tumour cell line growth inhibition, 48 h
Activity calls are given as the source filed them. Rule as the data show it: active = GI50 up to about 1.1 µM and inactive = higher.
Property Name: GI50

The cases that follow already have their GI50 on record.
Entry Smiles	GI50
Cc1ccccc1-n1c(=O)nc2n(-c3ccc(C(C)(C)C)cc3)c3ccccc3cc-2c1=O	25.7 µM (inactive)
COc1cccc(O)c1-c1cc(=O)c2c(O)c(OC)c(OC)c(OC)c2o1	27.2 µM (inactive)
Cc1cccc(N2CCN(S(=O)(=O)c3ccc(Cl)cc3)C2=N)c1C	> 100 µM (inactive)
NC(=S)SC1=NC(=O)C2(NN1)c1ccccc1-c1ccccc12	> 10 µM (inactive)

With those in mind, consider the next compound.
Ask | What value of GI50 on BT-549 does "N#Cc1nnn(C2CCCCC2)c1O" have?
Reply | > 100 µM (inactive)

###

# Tested on: T47D
# Method Summary: NCI tumour cell line growth inhibition, 48 h
Active and inactive are the calls of the source. No stated cut-off is given here; in the data, active = GI50 up to about 1.1 µM and inactive = higher.
Assign a class; possible classes are active, inactive

Ask | Any idea what this test logged for "ClCCN1CCO/C1=N/c1ccc2c(c1)CCCC2" ?
Reply | inactive

###

# Tested on: EKVX
# Method Summary: NCI tumour cell line growth inhibition, 48 h
Activity calls are given as the source filed them. Rule as the data show it: active = GI50 up to about 1.1 µM and inactive = higher. Starred links: 1 amine or outer side, 2 acyl side, 3 side chain; linkers in the order of their positions; H or OH if unused. Where a SMILES comes first, the peptide text is derived from it. Non-standard residues stand in square brackets, D forms with d. Residues, ends and D or L forms follow the SMILES beside them. The star is where a group is joined. X4 = C[C@H](N[*:1])C(=O)C(C)(C)C(=O)[*:2]; Hmpa(2S,3S) = CC[C@H](C)[C@H](O)C(=O)O; NMeY = CN[C@@H](Cc1ccc(O)cc1)C(=O)O; NMeL = CN[C@@H](CC(C)C)C(=O)O; NMeV = CN[C@H](C(=O)O)C(C)C; OSu = O=C1CCC(=O)N1O*; OBn = c1ccc(CO*)cc1; Bn = c1ccc(C*)cc1; βAla = NCCC(=O)O
Property Name: GI50

Molecule	GI50
O=C1C=CC2OC(c3ccccc3)C(O)C2O1 (stereo unspecified)	4.91 µM (inactive)
Cc1ccc(S(=O)(=O)N2CCNCCN(S(=O)(=O)c3ccc(C)cc3)CCN(S(=O)(=O)c3ccc(C)cc3)CC2)cc1	> 100 µM (inactive)
O=C(NC1CCCCCC1)C1C(=O)N(C2CCCCCC2)C(=O)/C1=N\O (stereo unspecified)	36.2 µM (inactive)
CC[C@H](C)[C@@H]1OC(=O)CCNC(=O)[C@@H](C)NC(=O)C(C)(C)C(=O)[C@H](C)NC(=O)[C@H](Cc2ccc(OC)cc2)N(C)C(=O)[C@H](C(C)C)N(C)C(=O)CNC(=O)[C@H](CC(C)C)N(C)C(=O)CNC1=O (cyclo(G[NMeL]G[NMeV][NMeY](Me)[X4][dA][βAla][Hmpa(2S,3S)]))	3.24 µM (inactive)
CC(C)CC(NC(=O)C(N)CCC(=O)OCc1ccccc1)C(=O)NC(COCc1ccccc1)C(=O)NC(Cc1ccccc1)C(=O)ON1C(=O)CCC1=O (stereo unspecified) (H-E(OBn)LS(Bn)F-OSu; configuration not given here)	32.1 µM (inactive)

Ask | State the recorded GI50 for this entry: "Oc1ccc(Cl)cc1C1=Nn2c(COc3ccc4c(c3)CCCC4)nnc2SC1"
Reply | 15.9 µM (inactive)
